Read-out: Hypoxia-inducible factor 1-alpha (Homo sapiens) (UniProt Q16665)
Sequence (Q16665 whole entry, looked up): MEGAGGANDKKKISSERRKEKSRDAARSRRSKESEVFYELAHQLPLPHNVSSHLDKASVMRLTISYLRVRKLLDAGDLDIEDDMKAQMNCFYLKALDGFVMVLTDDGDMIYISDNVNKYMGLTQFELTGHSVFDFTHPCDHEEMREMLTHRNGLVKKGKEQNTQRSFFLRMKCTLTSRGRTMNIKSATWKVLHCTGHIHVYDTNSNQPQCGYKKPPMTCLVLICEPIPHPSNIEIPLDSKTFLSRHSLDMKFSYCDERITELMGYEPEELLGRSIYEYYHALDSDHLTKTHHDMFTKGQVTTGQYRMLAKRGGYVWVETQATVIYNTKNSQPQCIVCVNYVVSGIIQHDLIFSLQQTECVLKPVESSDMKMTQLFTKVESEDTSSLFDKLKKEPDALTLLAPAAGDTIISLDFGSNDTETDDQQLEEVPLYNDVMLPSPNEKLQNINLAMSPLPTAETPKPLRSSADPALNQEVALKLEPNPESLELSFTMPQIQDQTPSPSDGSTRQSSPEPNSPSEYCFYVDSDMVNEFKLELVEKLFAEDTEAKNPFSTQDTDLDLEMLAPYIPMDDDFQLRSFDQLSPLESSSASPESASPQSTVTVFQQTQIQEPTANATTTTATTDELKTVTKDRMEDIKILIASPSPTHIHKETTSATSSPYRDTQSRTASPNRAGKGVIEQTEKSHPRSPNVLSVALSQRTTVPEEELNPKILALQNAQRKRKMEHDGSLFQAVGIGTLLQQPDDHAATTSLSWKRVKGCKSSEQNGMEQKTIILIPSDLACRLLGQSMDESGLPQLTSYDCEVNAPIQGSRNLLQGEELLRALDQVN
measurement protocol: LTEA_HepaRG_HIF1A: Life Technologies and Expression Analysis (LTEA) Assay for Hypoxia-inducible factor 1 (HIF1A) Trancription factor using HepaRG (AID 2283503);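 further: HIF1A transcript by TaqMan qRT-PCR normalized to ACTB GAPDH and POLR2A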
condition: mRNA level, 48 h; actives raise or lower the signal
Active and inactive are the calls of the source. How the source made its calls: active means hit-call score of the fitted dose curve at least 0.9, where 1 is the maximum; inactive means score below 0.9.
Please reply with one of these outcomes: active, inactive

Below are worked cases with known answers.
structure smiles string	class name
C=CN1CCCC1=O	inactive
Cc1ncc([C@@H](CCCCCCc2ccc3c(n2)NCCC3)CC(=O)O)cn1	inactive
COc1cc2c(c(OC)c1OC)-c1ccc(OC)c(=O)cc1[C@@H](NC(C)=O)CC2	active
OC[C@H]1O[C@@H]2O[C@H]3[C@H](O)[C@@H](O)[C@@H](O[C@H]4[C@H](O)[C@@H](O)[C@@H](O[C@H]5[C@H](O)[C@@H](O)[C@@H](O[C@H]6[C@H](O)[C@@H](O)[C@@H](O[C@H]7[C@H](O)[C@@H](O)[C@@H](O[C@H]1[C@H](O)[C@H]2O)O[C@@H]7CO)O[C@@H]6CO)O[C@@H]5CO)O[C@@H]4CO)O[C@@H]3CO	inactive
Nc1ccn([C@@H]2O[C@H](CO)[C@@H](O)[C@@H]2O)c(=O)n1	inactive

Could you check what this test reported for C[C@]12C=CC(=O)C=C1CC[C@H]1[C@@H]3C[C@@H](O)[C@](O)(C(=O)CO)[C@@]3(C)C[C@H](O)[C@@]12F ?
inactive

Same question for CCCCCCCCCC please.
inactive

Same question for O=C(O)c1cccc(C[C@@H]2COc3ccc(OCc4nc5cc(F)ccc5s4)cc3[C@@H]2O)c1 please.
active

----------
Read-out: BCL2L11 (gene 10018)
measurement protocol: LTEA_HepaRG_BCL2L11: Life Technologies and Expression Analysis (LTEA) Assay for Bcl-2 (BCL2L11) gene using HepaRG (AID 2283473)
condition: mRNA level, 48 h; actives raise or lower the signal
Calls of active or inactive are those of the source. Rule for the calls: active = hit-call score of the fitted dose curve at least 0.9, where 1 is the maximum; inactive = score below 0.9.
value type: AC50

# example entries with known answers
compound	AC50
CCCc1ccccc1	inactive
COS(C)(=O)=O	inactive
O=c1[nH]cnc2c1ncn2[C@H]1CC[C@@H](CO)O1	inactive
C[C@]12C=CC(=O)C=C1CC[C@H]1[C@@H]3C[C@@H](O)[C@](O)(C(=O)CO)[C@@]3(C)C[C@H](O)[C@@]12F	inactive
O=C(O)c1ccc2c(c1)nc(C(=O)NC1CCN(C3CC3)CC1)n2Cc1cc(-c2ccc(Cl)s2)on1	inactive
CC(C)CC(C)O (centres undefined)	inactive
CCc1ccc(O)c(C(C)(C)C)c1	inactive
CCCCOC(=O)c1ccccc1	inactive

Reported AC50 for c1ccc2cc3ccccc3cc2c1 : what is it?
inactive

Same question for c1ccc2c(c1)-c1cccc3c1c-2cc1ccccc13 please.
12.5 µM (active)

Same question for CCCCCCCCCCCCCCO please.
inactive

Same question for CCCCC(CC)C(=O)OCCOCCOCCOC(=O)C(CC)CCCC (centres undefined) please.
inactive

Same question for CCCCCCCCN(C)C please.
inactive

Same question for C=CCc1cc(S(=O)(=O)c2ccc(O)c(CC=C)c2)ccc1O please.
inactive

Same question for Cc1nccn1-c1ccc(Sc2cccc(C3(C(N)=O)CCOCC3)c2)cc1 please.
3.37 µM (active)

Same question for COc1cc2c(c(OC)c1OC)-c1ccc(OC)c(=O)cc1[C@@H](NC(C)=O)CC2 please.
0.237 µM (active)

Same question for O=C(O)c1cccc(C[C@@H]2COc3ccc(OCc4nc5cc(F)ccc5s4)cc3[C@@H]2O)c1 please.
inactive

Same question for C[C@@H](Oc1ccc(CNC(=O)c2cccnc2Oc2ccc3c(c2)OCO3)c(F)c1)C(=O)O please.
inactive

Same question for NC(=O)NN=Cc1ccc([N+](=O)[O-])o1 please.
inactive

Same question for COc1cc(C(C)C)c2c(c1)S(=O)(=O)N(COc1cc(=O)n3cccc(OCCN4CCCCC4)c3n1)C2=O please.
inactive

Same question for CCCC(CCC)C(=O)O please.
inactive

Same question for c1ccc(C(O[C@@H]2CCCN(CCc3ccc4c(c3)OCO4)C2)c2ccccc2)cc1 please.
inactive

Same question for NC(=O)N1c2ccccc2C=Cc2ccccc21 please.
inactive

Same question for CCCCCCCC/C=C\CCCCCCCC(=O)OC[C@@H](O)[C@H]1OC[C@H](O)[C@H]1O please.
inactive

Values were extracted from PubChem BioAssay (EPA / NIEHS).
